# assay target: Recombinant human NK3 (hNK3) receptor (Homo sapiens, UniProt P29371)
# Construct: expressed in transfected cells
# Sequence (P29371 whole entry): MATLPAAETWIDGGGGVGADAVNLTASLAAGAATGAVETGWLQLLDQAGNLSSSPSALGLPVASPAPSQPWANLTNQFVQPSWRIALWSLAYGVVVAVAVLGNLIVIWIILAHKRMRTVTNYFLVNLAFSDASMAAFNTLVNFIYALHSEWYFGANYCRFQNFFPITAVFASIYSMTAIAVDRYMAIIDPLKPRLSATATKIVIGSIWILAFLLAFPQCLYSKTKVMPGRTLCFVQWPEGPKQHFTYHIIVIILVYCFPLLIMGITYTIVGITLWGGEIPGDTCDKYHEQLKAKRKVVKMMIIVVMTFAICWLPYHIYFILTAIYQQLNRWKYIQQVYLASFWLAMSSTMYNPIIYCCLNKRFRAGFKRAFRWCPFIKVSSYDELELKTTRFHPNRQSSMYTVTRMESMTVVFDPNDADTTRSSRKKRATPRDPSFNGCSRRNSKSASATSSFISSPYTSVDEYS
# assay summary: NK3 receptor binding, [3H]SR142801 displacement, membrane preparations
# conditions used: second value of the cell pKi NK1/NK3; hNK3 receptor, [3H]SR142801
property label: Ki (nM)
Express the result in nM but write the number alone.

structure | property label | unit string | value measured
Cc1cc(F)ccc1-c1cc(N2C[C@H](O)C[C@H]2CO)ncc1N(C)C(=O)C(C)(C)c1cc(Cl)cc(Cl)c1 | Ki | nM | 1.58
CN(C(=O)C(C)(C)c1cc(C(F)(F)F)cc(C(F)(F)F)c1)c1cnc(N2CCC(NS(C)(=O)=O)CC2)cc1-c1ccccc1Cl | Ki | nM | 3.47
Cc1ccccc1-c1cc(NC(CO)CO)ncc1N(C)C(=O)C(C)(C)c1cc(C(F)(F)F)cc(C(F)(F)F)c1 | Ki | nM | 3.63
Cc1cc(F)ccc1-c1cc(N2[C@H](CO)CC[C@H]2CO)ncc1N(C)C(=O)C(C)(C)c1cc(C(F)(F)F)cc(C(F)(F)F)c1 | Ki | nM | 1.1
Cc1c(F)cccc1-c1cc(N(CCO)CCO)ncc1N(C)C(=O)C(C)(C)c1cc(C(F)(F)F)cc(C(F)(F)F)c1 | Ki | nM | 1.51

Entry `COc1cc(Cl)cc(C(C)(C)C(=O)N(C)c2cnc(N3C[C@H](O)C[C@H]3CO)cc2-c2ccc(F)cc2C)c1` , tested on Recombinant human NK3 (hNK3) receptor (Homo sapiens, UniProt P29371), has a reported Ki of 1.66

Entry `Cc1cc(F)ccc1-c1cc(N2C[C@H](O)C[C@H]2CO)ncc1N(C)C(=O)C(C)(C)c1cccc(C(F)(F)F)c1` , tested on Recombinant human NK3 (hNK3) receptor (Homo sapiens, UniProt P29371), has a reported Ki of 10.7

Entry `C[C@H](O)[C@@H](CO)Nc1cc(-c2ccccc2Cl)c(N(C)C(=O)C(C)(C)c2cc(C(F)(F)F)cc(C(F)(F)F)c2)cn1` , tested on Recombinant human NK3 (hNK3) receptor (Homo sapiens, UniProt P29371), has a reported Ki of 7.94

Entry `CN(C(=O)C(C)(C)c1cc(C(F)(F)F)cc(C(F)(F)F)c1)c1cnc(N2C[C@@H](O)[C@@H](O)C2)cc1-c1ccccc1Cl` , tested on Recombinant human NK3 (hNK3) receptor (Homo sapiens, UniProt P29371), has a reported Ki of 8.71

Entry `CN(C)c1ccc(-c2cc(N3C[C@H](O)C[C@H]3CO)ncc2N(C)C(=O)C(C)(C)c2cc(C(F)(F)F)cc(C(F)(F)F)c2)cc1` , tested on Recombinant human NK3 (hNK3) receptor (Homo sapiens, UniProt P29371), has a reported Ki of 14.8

Entry `CN(C(=O)C(C)(C)c1cc(C(F)(F)F)cc(C(F)(F)F)c1)c1cnc(N2CCCC[C@H]2CO)cc1-c1ccccc1Cl` , tested on Recombinant human NK3 (hNK3) receptor (Homo sapiens, UniProt P29371), has a reported Ki of 6.76

Entry `CCCCCCN(CCO)c1cc(-c2ccccc2Cl)c(N(C)C(=O)C(C)(C)c2cc(C(F)(F)F)cc(C(F)(F)F)c2)cn1` , tested on Recombinant human NK3 (hNK3) receptor (Homo sapiens, UniProt P29371), has a reported Ki of 12

Entry `Cc1cc(F)ccc1-c1cc(N2CC[C@H](O)C2)ncc1N(C)C(=O)C(C)(C)c1cc(C(F)(F)F)cc(C(F)(F)F)c1` , tested on Recombinant human NK3 (hNK3) receptor (Homo sapiens, UniProt P29371), has a reported Ki of 13.5
